- Tested on: MALME-3M melanoma
- PROCEDURE DETAILS: NCI-60 one-dose screen, 48 h
- SETUP CONDITIONS: 10 µM unless noted
- Description: Cells are grown in 96 well plates and exposed to the test compound for 48 hours. Compounds are tested at a single concentration, which is 10^-5 M for most compounds. The reported endpoint is percent growth (GI% or GIPRCNT), where numbers from 0 - 100% represent growth inhibition, and numbers from -100% - 0 represent cell death. For example, a value of 40 represents 60% growth inhibition. A value of 0 means no net growth occurred over the course of the experiment. […]
This is part of a sample that, as a whole, favours compounds with a hit. Of some 83,000 tested, about 20% had one in any assay. Calls of active or inactive are those of the source. How the source made its calls: active means growth percent below 10; inactive means the rest.
Permitted responses: active, inactive

// below: answered molecules
ENTRY SMILES: COc1cc2c(c(OC)c1OC)C(=O)/C(=C/c1cc(C)c(O)c(C)c1)S2
TEST TARGET: MALME-3M melanoma
CLASSIFICATION: inactive
--
ENTRY SMILES: CN(C)c1ccc2cc(-c3ccc(Cl)c(Cl)c3)c(N)nc2c1
TEST TARGET: MALME-3M melanoma
CLASSIFICATION: inactive
--
ENTRY SMILES: CCOC(=O)c1sc2ccc(NCc3nc[nH]c3C)cc2c1NC(=O)c1cc(OC)c(OC)c(OC)c1
TEST TARGET: MALME-3M melanoma
CLASSIFICATION: inactive

Fill in: this test's call for Cl.Fc1c[c-]c(-c2ccccn2)c(F)c1.[Pt].c1ccc([PH+](C[PH+](c2ccccc2)c2ccccc2)c2ccccc2)cc1 is ___
active

---

- Tested on: SF-539 CNS
- PROCEDURE DETAILS: NCI-60 one-dose screen, 48 h (100 = growth as untreated, 0 = no growth, -100 = all killed)
- SETUP CONDITIONS: 10 µM unless noted
The panel holds about 83,000 compounds, 20% with a hit somewhere; the sample as a whole holds those more often. Active and inactive are the calls of the source. The calls were made as follows: active = growth percent below 10; inactive = the rest.
In this section, each of the compounds is paired with its reported growth.

Use the examples below as a reference point.
COMPOUND: COc1cc(NC(=O)c2cc(O)c(CC=C(C)C)c(O)c2)cc2c1O[C@]1(C)CC[C@@H](O)C(C)(C)[C@H]1C2
OBSERVED MEASUREMENT: -34.6% (active)

COMPOUND: C#C[C@]1(O)CC[C@H]2[C@@H]3CC=C4c5sc(N=C(N)N)nc5CC[C@]4(C)[C@H]3CC[C@@]21C
OBSERVED MEASUREMENT: -81.3% (active)

COMPOUND: CCCCCCCSc1ccc(C(=O)O)cc1
OBSERVED MEASUREMENT: 99.7% (inactive)

COMPOUND: CCCCN(CCCC)CCCn1c(=O)c2sc3ncccc3c2n2nnc(-c3ccccc3)c12
OBSERVED MEASUREMENT: 99.6% (inactive)

COMPOUND: CCCNCC(=O)Nc1ccc(C(=O)OC(C)(C)CC)cc1
OBSERVED MEASUREMENT: 108% (inactive)

Item: COc1cc(C(=O)/C=C/c2c(C(F)(F)F)nc3ccccn23)cc(OC)c1OC | growth: -92.8% (active)

Documented growth of Clc1ccc(/C=N\N=c2\scc(-c3ccc(Cl)cc3)n2/N=C/c2ccc(Cl)cc2)cc1 : 96.1% (inactive)

Lookup result for O=S(=O)(NCCNc1cc(-c2c(-c3cccc(O)c3)nc3sccn23)ccn1)c1ccc(Br)cc1 ; measured growth: 75.2% (inactive)

For reference, reported growth for COc1ccc(C2CC(c3ccc4ccccc4c3)=NN2c2nc(O)c(C3=c4cc(Cl)ccc4=NC3=O)s2)cc1 (centres undefined) stands at -52.5% (active)
